Listed here are molecules together with their documented inhibition.
Biological target: Neuronal acetylcholine receptor; alpha3/beta4 (Rattus norvegicus) (UniProt P04757+P12392)
Experiment: Antagonist activity at rat alpha3beta4 nAChR expressed in HEK293 cells assessed as inhibition of epibatadine-induced effect at 10 uM after 30 mins by fluorescent membrane potential assay relative to mecamylamine
Assay type: cell-based
Bridge positions count the residues as written; N and C are the ends. Square brackets hold non-standard residues; d marks the D form. Peptide text beside a SMILES is read from it. Nle = CCCC[C@H](N)C(=O)O; Nva = CCC[C@H](N)C(=O)O; Abu = CC[C@H](N)C(=O)O
Give the quantity in %, number only.

molecule	unitOfMeasurement	reported
CCCC[C@@H]1NC(=O)[C@H](CC)NC(=O)[C@H](Cc2ccccc2)NC(=O)[C@@H]2CSSC[C@H](NC(=O)CN)C(=O)N[C@@H](CSSC[C@@H](C(=O)O)NC(=O)[C@@H]3CCCN3C1=O)C(=O)N[C@@H](CO)C(=O)N[C@@H](CCCC)C(=O)N1CCC[C@H]1C(=O)N[C@@H](CC)C(=O)N2 (H-GCCS[Nle]P[Abu]CF[Abu][Nle]PC-OH; disulfide 2-8, 3-13)	%	36.6
CCCC[C@@H]1NC(=O)[C@H](CO)NC(=O)[C@@H]2CSSC[C@@H](C(=O)O)NC(=O)[C@@H]3CCCN3C(=O)[C@H](CCC)NC(=O)[C@H](Cc3c[nH]c4ccccc34)NC(=O)[C@H]([C@H](C)CC)NC(=O)[C@H](CSSC[C@H](NC(=O)CN)C(=O)N2)NC(=O)[C@H](CC)NC(=O)[C@@H]2CCCN2C1=O	%	44.8
CCCC[C@@H]1NC(=O)[C@H](CO)NC(=O)[C@@H]2CSSC[C@@H](C(=O)O)NC(=O)[C@@H]3CCCN3C(=O)[C@H](CCC)NC(=O)[C@H](CC)NC(=O)[C@H](Cc3ccccc3)NC(=O)[C@H](CSSC[C@H](NC(=O)CN)C(=O)N2)NC(=O)[C@@H]2CCCN2C(=O)[C@@H]2CCCN2C1=O (H-GCCS[Nle]PPCF[Abu][Nva]PC-OH; disulfide 2-8, 3-13)	%	35.7
CCCC[C@@H]1NC(=O)[C@H](CO)NC(=O)[C@@H]2CSSC[C@@H](C(=O)O)NC(=O)[C@H](Cc3ccc(O)cc3)NC(=O)[C@H](CCC)NC(=O)[C@H](Cc3c[nH]c4ccccc34)NC(=O)[C@H](Cc3ccccc3)NC(=O)[C@H](CSSC[C@H](NC(=O)CN)C(=O)N2)NC(=O)[C@@H]2CCCN2C(=O)[C@@H]2CCCN2C1=O (H-GCCS[Nle]PPCFW[Nva]YC-OH; disulfide 2-8, 3-13)	%	61.6

Could you now consider this next molecule?
### Prompt inhibition for CCCC[C@@H]1NC(=O)[C@H](CC)NC(=O)[C@H]([C@H](C)CC)NC(=O)[C@@H]2CSSC[C@H](NC(=O)CN)C(=O)N[C@@H](CSSC[C@@H](C(=O)O)NC(=O)[C@H](Cc3ccc(O)cc3)NC1=O)C(=O)N[C@@H](CO)C(=O)N[C@@H](Cc1cnc[nH]1)C(=O)N1CCC[C@H]1C(=O)N1CCC[C@H]1C(=O)N2 ?
### Response 67.2

###

Biological target: Neuronal acetylcholine receptor; alpha4/beta2 (Rattus norvegicus, UniProt P09483+P12390)
Sequence (P09483 whole entry): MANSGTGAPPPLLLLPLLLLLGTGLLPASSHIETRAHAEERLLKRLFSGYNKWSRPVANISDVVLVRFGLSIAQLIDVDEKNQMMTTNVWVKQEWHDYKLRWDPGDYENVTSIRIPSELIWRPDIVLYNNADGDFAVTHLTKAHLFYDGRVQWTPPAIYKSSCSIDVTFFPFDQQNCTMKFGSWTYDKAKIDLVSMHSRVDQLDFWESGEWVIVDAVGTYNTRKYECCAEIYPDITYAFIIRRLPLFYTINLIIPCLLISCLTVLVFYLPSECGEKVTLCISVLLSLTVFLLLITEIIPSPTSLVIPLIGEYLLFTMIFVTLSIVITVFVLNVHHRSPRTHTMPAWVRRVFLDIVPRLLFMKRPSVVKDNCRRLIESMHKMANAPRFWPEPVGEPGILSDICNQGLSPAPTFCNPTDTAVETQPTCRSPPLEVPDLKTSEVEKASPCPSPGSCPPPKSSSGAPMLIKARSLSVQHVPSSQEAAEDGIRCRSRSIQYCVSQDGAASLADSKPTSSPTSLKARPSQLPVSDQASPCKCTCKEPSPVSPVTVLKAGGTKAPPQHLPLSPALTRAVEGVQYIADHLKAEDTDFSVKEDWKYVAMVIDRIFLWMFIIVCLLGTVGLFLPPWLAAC
Sequence (P12390 whole entry): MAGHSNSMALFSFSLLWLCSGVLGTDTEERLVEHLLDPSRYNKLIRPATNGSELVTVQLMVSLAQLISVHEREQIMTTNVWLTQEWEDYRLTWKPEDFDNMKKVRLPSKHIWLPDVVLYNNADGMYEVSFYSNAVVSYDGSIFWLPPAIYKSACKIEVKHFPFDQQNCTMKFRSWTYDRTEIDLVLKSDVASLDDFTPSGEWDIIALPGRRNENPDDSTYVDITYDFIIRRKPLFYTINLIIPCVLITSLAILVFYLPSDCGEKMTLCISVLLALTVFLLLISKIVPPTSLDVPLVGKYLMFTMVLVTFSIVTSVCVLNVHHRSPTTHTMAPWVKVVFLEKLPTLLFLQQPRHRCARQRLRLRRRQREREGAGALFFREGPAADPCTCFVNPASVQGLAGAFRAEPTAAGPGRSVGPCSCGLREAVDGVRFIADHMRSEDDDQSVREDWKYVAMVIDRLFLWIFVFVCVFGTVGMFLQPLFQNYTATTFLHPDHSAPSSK
Experiment: Antagonist activity at rat alpha4beta2 nAChR expressed in HEK293 cells assessed as inhibition of epibatadine-induced effect after 30 mins by fluorescent membrane potential assay
Bridge positions count the residues as written; N and C are the ends. Square brackets hold non-standard residues; d marks the D form. Peptide text beside a SMILES is read from it. Nle = CCCC[C@H](N)C(=O)O; Abu = CC[C@H](N)C(=O)O
Reported IC50 by item:

compound	IC50
CCCC[C@@H]1NC(=O)[C@H](CC)NC(=O)[C@H](Cc2ccccc2)NC(=O)[C@@H]2CSSC[C@H](NC(=O)CN)C(=O)N[C@@H](CSSC[C@@H](C(=O)O)NC(=O)[C@H](Cc3ccc(O)cc3)NC1=O)C(=O)N[C@@H](CO)C(=O)N[C@@H](Cc1cnc[nH]1)C(=O)N1CCC[C@H]1C(=O)N[C@@H](CC)C(=O)N2 (H-GCCSHP[Abu]CF[Abu][Nle]YC-OH; disulfide 2-8, 3-13)	> 10 µM

### Prompt Fill in: IC50 of CCCC[C@@H]1NC(=O)[C@H](CC)NC(=O)[C@H]([C@H](C)CC)NC(=O)[C@@H]2CSSC[C@H](NC(=O)CN)C(=O)N[C@@H](CSSC[C@@H](C(=O)O)NC(=O)[C@H](Cc3ccc(O)cc3)NC1=O)C(=O)N[C@@H](CO)C(=O)N[C@@H](Cc1cnc[nH]1)C(=O)N1CCC[C@H]1C(=O)N[C@@H](CC)C(=O)N2 is ___
### Response > 10 µM
